Study Target: Single-strand selective monofunctional uracil DNA glycosylase (Homo sapiens) (UniProt Q53HV7);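 note: enzymatic SMUG1 assay coupled with APE1, reading fluorescence at 594 nm released when a quenched double-stranded DNA oligonucleotide substrate is cleaved and separated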
Sequence (whole entry): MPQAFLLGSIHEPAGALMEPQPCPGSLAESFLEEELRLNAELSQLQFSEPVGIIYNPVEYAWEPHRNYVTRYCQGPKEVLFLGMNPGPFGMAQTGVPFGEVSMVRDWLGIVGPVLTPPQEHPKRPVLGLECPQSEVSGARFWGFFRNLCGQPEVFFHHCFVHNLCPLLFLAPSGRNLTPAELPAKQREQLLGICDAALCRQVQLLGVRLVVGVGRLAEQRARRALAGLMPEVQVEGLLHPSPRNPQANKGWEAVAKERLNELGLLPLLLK
Assay Context: Compound Concentration 1.0 uM, Hit No
Would you please tag the item Yes when its inhibition is 10% or above, and No when it is below?

* COc1cccc(CNC(=O)c2nc3scc(COCc4ccc(C(=O)O)cc4)c3c(=O)[nH]2)c1 | Yes
* Cc1ccc(-c2cnc([C@@]3(O)CC[C@H](C(=O)O)C(C)(C)C3)s2)cc1Nc1cccc(C(F)(F)F)n1 | No
* N[C@@H]1CCCN(c2c(/C=C3\SC(=O)NC3=O)cccc2-c2ccccc2)C1 | Yes
* OCCn1cc(-c2ccc3c(c2)CCC3=NO)c(-c2ccncc2)n1 | Yes
* COC[C@H](NC(=O)c1ccn(S(C)(=O)=O)c1)C(=O)Nc1nc(-c2cccc(-c3ccn(C)n3)c2)cs1 | Yes
* CCc1ccccc1C(=O)Nc1n[nH]c2c(C)c(F)c(C3C(C#N)=C(C)N(C)C(C)=C3C#N)cc12 | Yes
* CN(C)C(=O)Cn1cc(-c2ccc(-c3cncc4ccccc34)cc2)cn1 | Yes
* Nc1ncc2c(n1)-c1c([nH]c3ccc(C4CC4)cc13)CCCC2 | Yes
* CCN(CC)CCCCNc1ncc2cc(-c3cc(OC)cc(OC)c3)c(NC(=O)NC(C)(C)C)nc2n1 | Yes
* N#Cc1cnc(Nc2cc(NC[C@H]3CNCCO3)c(C(F)(F)F)cn2)cn1 | Yes
* CNc1nc(Nc2cnn([C@H]3CCN(C4COC4)C[C@@H]3F)c2Cl)ncc1C(F)(F)F | Yes
* NC1(c2ccc(-c3nc4c(O)ccnn4c3-c3ccccc3)cc2)CCC1 | Yes
* Nc1cnc(N2CCc3cc(S(=O)(=O)Nc4c(F)cc(Cl)cc4F)cc(N4CCCC4=O)c32)nc1 | No
* CCOC(=O)c1cc2cc(-c3cc(C(=O)NCc4ccc(C(=O)O)cc4)nn3C)ccc2[nH]1 | No
* CNC(=O)c1ccc(Nc2ncc(C(F)(F)F)c(NCc3nccnc3N(C)S(C)(=O)=O)n2)cc1 | Yes
* CC(C)CC(=O)N1CCc2nc(-c3ccc(Br)cc3)nc(N(C)Cc3ccccc3)c2C1 | No
* CNC(=O)Nc1ccc2c(c1)CC[C@@]21OC(=O)N(CC(=O)N(Cc2ccc(F)cc2)[C@@H](C)C(F)(F)F)C1=O | Yes
* CCOc1cn(-c2ccc(F)cc2C)nc1C(=O)Nc1ccc(Oc2ccnc3cc(OC)c(OC)cc23)c(F)c1 | Yes
* COc1c(OCCCN2CCOCC2)ccc2c1N=C(NC(=O)c1cnc(N)nc1)N1CCN=C21 | Yes
* CN1C(=O)[C@@H](N2CCc3cn(Cc4ccccc4)nc3C2=O)COc2ccccc21 | Yes
* COc1cc(N[C@@H]2CCCC[C@]2(O)C(F)(F)F)ccc1F | Yes
* CS(=O)(=O)c1cc(C2(NC(=O)c3cncc4c3cnn4-c3ccc(F)cc3)CC2)ccn1 | No
* CN1CCN(C(=O)C(C)(C)c2ccc(C(=O)Nc3cn4cc(-c5ccncc5)ccc4n3)cc2)CC1 | Yes
* Cn1cc(-c2[nH]c3cc(NC(=O)[C@H](N)C4CCCCC4)cc4c3c2C=NNC4=O)cn1 | Yes
* N#Cc1ccc(Nc2ccc3[nH]c(=O)[nH]c3c2)c(Cl)c1 | Yes
* CCC(=O)N1CCN(c2ccc(-n3c(=O)ccc4cnc5ccc(-c6cnc7ccccc7c6)cc5c43)cc2C(F)(F)F)CC1 | Yes
* CS(=O)(=O)NCC[C@H](NC(=O)c1cncc2c1cnn2-c1ccc(F)cc1)c1ccnc(S(C)(=O)=O)c1 | No
* C[C@@H]1CN(c2cc(-c3n[nH]c4ccc(OC5(C)CC5)cc34)ncn2)C[C@H](C)O1 | Yes
* C[C@@H]1CCN(C(=O)CC#N)C[C@@H]1N(C)c1ncnc2[nH]ccc12 | Yes
* O=C(NOCC1CC1)c1ccc(F)c(F)c1Nc1ccc(I)cc1Cl | No
* CS(=O)(=O)N1CCCC(NC(=O)[C@H](CCC2CCCCC2)NC(=O)c2ccc(CNC(=O)c3cnc4ccccn34)cc2)C1 (some centres undefined) | Yes
* C[C@@H](Oc1cc(-n2cnc3ccc(CN4CCN(C)CC4)cc32)sc1C(N)=O)c1ccccc1C(F)(F)F | Yes
* COc1cnccc1Nc1nc(-c2nn(Cc3c(F)cc(OCCO)cc3F)c3ccccc23)ncc1OC | No
* CN(C)C/C=C/C(=O)Nc1cc2c(Nc3ccc(F)c(Cl)c3)ncnc2cc1O[C@H]1CCOC1 | No
* CC1=C(C#N)C(c2ccc3c(c2)c(NC(=O)c2ccccc2C)nn3C)C(C#N)=C(C)N1 | Yes
* Cn1cc(C2=C(c3cn(C4CCN(Cc5ccccn5)CC4)c4ccccc34)C(=O)NC2=O)c2ccccc21 | No
* O=C(Cc1ccccc1)Nc1nnc(N2C[C@H]3C[C@@H]2CN3c2cccnn2)s1 | Yes
* COc1cccc(-c2nccc3c2CN(c2ccccc2)C3=O)c1 | Yes
* COCCOc1nc(-c2ccc(Cl)nc2)nc2c1CN(C(=O)c1ncn3ccccc13)CC2 | No
